- System: MDA-MB-231 breast
- test_details: NCI tumour cell line growth inhibition, 48 h

{"compound": "Cc1ccc2ccc(O)cc2c1", "TGI": "> 100 µM"}
{"compound": "CC(=O)Oc1ccc(/C=C/C(=O)NCC(NC(=O)/C=C/c2ccc(OC(C)=O)c(OC(C)=O)c2)C(=O)O)cc1OC(C)=O (stereo unspecified)", "TGI": "> 100 µM"}
{"compound": "CCOC(=O)c1sc2nc(SC)nc(Nc3ccc4c(c3)OCO4)c2c1N", "TGI": "> 100 µM"}
{"compound": "C/C(=C\\CO)CC/C=C(\\C)CNc1ccccc1", "TGI": "> 100 µM"}
{"compound": "O=C1C=C(Nc2ccc([N+](=O)[O-])cc2)c2ccccc2C1=O", "TGI": "13.2 µM"}
{"compound": "COc1ccc(C2C(C#N)=C(N)Oc3c2sc2c(C)cccc32)cc1 (stereo unspecified)", "TGI": "10.6 µM"}
{"compound": "O=C(CC(=O)Nc1ccc(C(=O)O)cc1)Nc1ccc(C(=O)O)cc1", "TGI": "> 100 µM"}
{"compound": "CC(=O)O[C@H]1C(=O)[C@@]2(C)[C@H]([C@H](OC(=O)c3ccccc3)[C@]3(O)C[C@H](OC(=O)[C@H](OC(=O)OC[C@@H]4COC(C)(C)O4)[C@@H](NC(=O)c4ccccc4)c4ccccc4)C(C)=C1C3(C)C)[C@]1(OC(C)=O)CO[C@@H]1C[C@@H]2O", "TGI": "> 7.26 µM"}
{"compound": "Cn1cc(C2=C(c3cn(C)c4ccc(OCc5ccccc5)cc34)C(=O)NC2=O)c2ccccc21", "TGI": "> 25 µM"}
{"compound": "CN(C)CCCNc1c2c(nc3ccc(Cl)cc13)CCCC2", "TGI": "31.2 µM"}
{"compound": "CC(C)OC(=O)Nc1ccc(-c2nc(-c3cccc(OCCN4CCOCC4)c3)c(-c3ccnc(Br)c3)[nH]2)cc1", "TGI": "56.7 µM"}
{"compound": "COC12COC(=O)C1C(c1ccc3c(c1)OCO3)c1cc3c(cc1O2)OCO3 (stereo unspecified)", "TGI": "> 100 µM"}
{"compound": "CCOP(=O)(OCC)OC1c2[nH]ccc2-c2cc(C(=O)OC)[nH]c2C1OC (stereo unspecified)", "TGI": "> 100 µM"}
{"compound": "C[C@]12CC[C@@H]3c4ccc(O)cc4CC[C@H]3[C@@H]1CC[C@@H]2NS(=O)(=O)c1cccc(OC(F)(F)F)c1", "TGI": "3.86 µM"}
{"compound": "CCOC(=O)Cc1cc(=O)oc2cc(O)ccc12", "TGI": "> 100 µM"}
{"compound": "Cc1ccc(-c2c(C#N)c(-c3ccccc3)c(C#N)c(=O)n2NS(=O)(=O)c2ccc(C)cc2)cc1", "TGI": "> 100 µM"}
{"compound": "O=C(O)CCC(N=C(C(=NC(CCC(=O)O)C(=O)O)c1ccccc1)c1ccccc1)C(=O)O (stereo unspecified)", "TGI": "> 100 µM"}
{"compound": "COC(=O)c1c(O)ccc2c1c1c(n2CCc2ccccc2)C(=O)c2ccccc2C1=O", "TGI": "29.7 µM"}
{"compound": "CC1(C)C2CCC1(C)[C@H](O)[C@H]2Nc1cc(C(F)(F)F)cc(C(F)(F)F)c1 (stereo partly specified)", "TGI": "15.3 µM"}
{"compound": "COc1ccc2c(c1)SC1=NNC(Cl)C(=O)N12 (stereo unspecified)", "TGI": "35.6 µM"}
{"compound": "CC(C1CCCC1=O)C1CCCC1=O (stereo unspecified)", "TGI": "> 100 µM"}
{"compound": "Nc1nonc1-c1nc2cnccc2n1C1CCCCC1", "TGI": "> 25 µM"}
{"compound": "Cc1cn(C(=O)NC23CC4CC(CC(C4)C2)C3)c(=O)[nH]c1=O", "TGI": "61.3 µM"}
{"compound": "CSC(N)=Nc1cccc2ccccc12", "TGI": "> 10 µM"}
{"compound": "Cc1ccc2c(c1)c(C1=C(c3cn(C)c4ccccc34)C(=O)NC1=O)cn2C", "TGI": "> 25 µM"}
{"compound": "Cc1ccc(C2(C)CC/C(=N/N=C3/CCC(C)(c4ccc(C)c(C)c4)c4cc(C)c(C)cc43)c3cc(C)c(C)cc32)cc1C (stereo unspecified)", "TGI": "> 100 µM"}
